measuredTarget: human GLP-1R (SNAP-GLP-1R expressed in HEK293 cells) (human) (UniProt P43220)
Sequence (P43220 24-463): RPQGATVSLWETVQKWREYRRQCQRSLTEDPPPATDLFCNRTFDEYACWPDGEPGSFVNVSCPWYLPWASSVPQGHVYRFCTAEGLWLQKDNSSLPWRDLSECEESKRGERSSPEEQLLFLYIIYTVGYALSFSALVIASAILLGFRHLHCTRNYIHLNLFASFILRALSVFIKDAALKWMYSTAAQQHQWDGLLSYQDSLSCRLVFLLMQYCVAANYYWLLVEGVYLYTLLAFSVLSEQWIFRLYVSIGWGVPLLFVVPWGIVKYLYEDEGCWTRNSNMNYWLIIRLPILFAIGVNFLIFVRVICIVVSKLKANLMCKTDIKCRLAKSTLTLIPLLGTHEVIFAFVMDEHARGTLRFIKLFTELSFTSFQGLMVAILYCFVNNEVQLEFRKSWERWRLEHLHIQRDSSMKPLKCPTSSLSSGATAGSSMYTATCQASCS
test: cell-based or functional assay
Starred links: 1 amine or outer side, 2 acyl side, 3 side chain; linkers in the order of their positions; H or OH if unused. Non-standard residues stand in square brackets, D forms with d. Groups on a side chain read outwards from the residue. No end group written: not given here. *: point of attachment. C20 diacid = O=C(O)CCCCCCCCCCCCCCCCCCC(=O)*; γGlu = O=C(O)[C@H](CCC(=O)[*:2])N[*:1]; αMeL = CC(C)C[C@](C)(N)C(=O)O; AEEA = NCCOCCOCC(=O)O; Aib = CC(C)(N)C(=O)O
// reported Internalization % TOP for each item listed
Write the value in % as a bare number.

{"binder": "YXQGTFTSDFSXXLDKKAQXAFIEWLLEGGSSSGAPPPSGE (synthetic construct; SITE 2: note = 2-Aminoisobutyric Acid; SITE 12: note = L-ornithine; SITE 13: note = alpha-methyl-leucine; SITE 17: note = Lysine is chemically modified through conjugation of the epsilon-amino group of the Lysine side chain with (2-[2-(2-Amino-ethoxy)-ethoxy]-acetyl)-(gamma-Glu)) [Example 172]", "Internalization % TOP / %": 41.4}

# binder YXQGTFTSDFSXXLDKKAQXAFIEYLLEAGPSSGXPPPSGS (ornithine at residue 12; synthetic construct; SITE 2: note = 2-Aminoisobutyric Acid; SITE 12: note = L-ornithine; SITE 13: note = alpha-methyl-leucine; SITE 17: note = Lysine is chemically modified through conjugation of the epsilon-amino group of the Lysine side chain with (2-[2-(2-Amino-ethoxy)-ethoxy]-acetyl)2-(gamma-Glu)) [Example 254] ; its Internalization % TOP = 47.8

# binder YXQGTFTSDFSRXLDKKAQXAFIEYLLEGGESSGAPPPSGS (synthetic construct; SITE 2: note = 2-Aminoisobutyric Acid; SITE 13: note = alpha-methyl-leucine; SITE 17: note = Lysine is chemically modified through conjugation of the epsilon-amino group of the Lysine side chain with (2-[2-(2-Amino-ethoxy)-ethoxy]-acetyl)-(gamma-Glu)-CO-(CH2) 16-CO2H; SITE 20: n) [Example 148] ; its Internalization % TOP = 37.4

# binder Y[Aib]QGTFTSDYSI[αMeL]LDKIAAK([AEEA-AEEA-γGlu-C20 diacid])QFVQWLIE[Aib]GPSSGEPPPSEG-NH2 (ends and bridges not checked) [Example 323] ; its Internalization % TOP = 84.8

# binder YXQGTFTSDFSRXLDKKAQXAFIEYLLEGGPSSGAPPPSGS (synthetic construct; SITE 2: note = 2-Aminoisobutyric Acid; SITE 13: note = alpha-methyl-leucine; SITE 17: note = Lysine is chemically modified through conjugation of the epsilon-amino group of the Lysine side chain with (2-[2-(2-Amino-ethoxy)-ethoxy]-acetyl)-(gamma-Glu)-CO-(CH2) 16-CO2H; SITE 20: n) [Example 143] ; its Internalization % TOP = 43

Cited source for all entries: patent US20240270821A1
